Consider the following compounds; for each one, report its viability, T/C.
Tested on: 994946-033-R-J1-PDC complex spheroid viability
Assay: Anticancer human tumor 994946-033-R-J1-PDC patient-derived melanoma cell line growth inhibition [POLQ]
Settings: second compound 10 µM; first compound 0.316 µM; active compounds read low

[in] # input compound: O=c1[nH]cc(F)c(=O)[nH]1 + Nc1ccc(C#CCN(C(=O)Cc2ncc(C(F)(F)F)cc2C(F)(F)F)c2ccc(F)cc2)nn1 ; wanted: its viability, T/C
[out] 86.9%

[in] Could you tell me which viability, T/C is on file for C=CCn1c(=O)c2cnc(Nc3ccc(N4CCN(C)CC4)cc3)nc2n1-c1cccc(C(C)(C)O)n1 + Cc1cccc(N(C)C(=O)C2C(O)CCN2c2nc(C)cc(C(F)(F)F)c2C#N)c1 ?
[out] 80.5%

[in] What value of measured viability, T/C is listed for CC1COCCN1c1cc(C2(O)CC3CCC(C2)O3)c2cnn(-c3ccn[nH]3)c2n1 (stereo unspecified) + COC1C(OC(N)=O)C(O)C(Oc2ccc3c(O)c(NC(=O)c4ccc(O)c(CC=C(C)C)c4)c(=O)oc3c2C)OC1(C)C ?
[out] 27.6%

[in] What does the data say about its viability, T/C? Entry: CNCc1ccc(-c2[nH]c3cc(F)cc4c3c2CCNC4=O)cc1 + Nc1ccc(C#CCN(C(=O)Cc2ncc(C(F)(F)F)cc2C(F)(F)F)c2ccc(F)cc2)nn1
[out] 88.7%

[in] For the compound CCc1cc2c(N3CCc4c(cc(Cn5ccnc5)cc4-c4cn(C)nc4C(F)(F)F)C3=O)cc(C)nc2c(OC)n1 + Cc1cccc(N(C)C(=O)C2C(O)CCN2c2nc(C)cc(C(F)(F)F)c2C#N)c1 , what viability, T/C is on record?
[out] 68.1%

[in] What does the data say about its viability, T/C? Entry: O=C(c1cc(Cc2n[nH]c(=O)c3ccccc23)ccc1F)N1CCN(C(=O)C2CC2)CC1 + Nc1ccc(C#CCN(C(=O)Cc2ncc(C(F)(F)F)cc2C(F)(F)F)c2ccc(F)cc2)nn1
[out] 70.3%

----------
System: 994946-033-R-J1-PDC complex spheroid viability
Assay: Anticancer human tumor 994946-033-R-J1-PDC cell line growth inhibition [POLQ];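 also: spheroids exposed to drugs for 7 days; 100% = DMSO vehicle treated spheroids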
Conditions: second compound 0.0316 µM; first compound 0.316 µM; active compounds read low
Output True for records whose viability, T/C is lower than 80%, False for records at or above 80%.

[in] Lab log: compare recorded viability, T/C with 80%; is it strictly lower for O=C(c1cc(Cc2n[nH]c(=O)c3ccccc23)ccc1F)N1CCN(C(=O)C2CC2)CC1 + Nc1ccc(C#CCN(C(=O)Cc2ncc(C(F)(F)F)cc2C(F)(F)F)c2ccc(F)cc2)nn1 ?
[out] False

[in] Would you kindly verify if viability, T/C of COc1ccc([C@@H](O)c2cc(-c3ncnc4cc(N5CCOCC5)ccc34)c(F)cc2Cl)nn1 + Cc1cccc(N(C)C(=O)C2C(O)CCN2c2nc(C)cc(C(F)(F)F)c2C#N)c1 is strictly less than 80%?
[out] False

[in] Regarding C=CC(=O)N1CCN(c2nc(=O)n(-c3c(C)ccnc3C(C)C)c3nc(-c4c(O)cccc4F)c(F)cc23)C(C)C1 (stereo not given) + COC1C(OC(N)=O)C(O)C(Oc2ccc3c(O)c(NC(=O)c4ccc(O)c(CC=C(C)C)c4)c(=O)oc3c2C)OC1(C)C , kindly confirm whether its viability, T/C is beneath 80%.
[out] False

[in] Report whether reported viability, T/C is lower than 80% (strictly) for O=C(c1cc(Cc2n[nH]c(=O)c3ccccc23)ccc1F)N1CCN(C(=O)C2CC2)CC1 + COC1C(OC(N)=O)C(O)C(Oc2ccc3c(O)c(NC(=O)c4ccc(O)c(CC=C(C)C)c4)c(=O)oc3c2C)OC1(C)C
[out] False

[in] # check: viability, T/C < 80% for COc1ccc([C@@H](O)c2cc(-c3ncnc4cc(N5CCOCC5)ccc34)c(F)cc2Cl)nn1 + Nc1ccc(C#CCN(C(=O)Cc2ncc(C(F)(F)F)cc2C(F)(F)F)c2ccc(F)cc2)nn1
[out] True

[in] In the record for CCc1c2c(nc3ccc(O)cc13)-c1cc3c(c(=O)n1C2)COC(=O)[C@]3(O)CC + Nc1ccc(C#CCN(C(=O)Cc2ncc(C(F)(F)F)cc2C(F)(F)F)c2ccc(F)cc2)nn1 , is viability, T/C less than 80%?
[out] True

[in] Find out if reported viability, T/C for CCc1cc2c(N3CCc4c(cc(Cn5ccnc5)cc4-c4cn(C)nc4C(F)(F)F)C3=O)ccnc2c(OC)n1 + Cc1cccc(N(C)C(=O)C2C(O)CCN2c2nc(C)cc(C(F)(F)F)c2C#N)c1 is less than 80%
[out] True

[in] Strictly below 80%: is that where viability, T/C of C#Cc1c(F)ccc2cc(O)cc(-c3ncc4c(N5CC6CCC(C5)N6)nc(OCC56CCCN5CC(F)C6)nc4c3F)c12 (stereo not given) + Nc1ccc(C#CCN(C(=O)Cc2ncc(C(F)(F)F)cc2C(F)(F)F)c2ccc(F)cc2)nn1 sits?
[out] False

[in] Please state whether viability, T/C is below 80% for Nc1ccn(C2OC(CO)C(O)C2(F)F)c(=O)n1 (stereo not given) + COC1C(OC(N)=O)C(O)C(Oc2ccc3c(O)c(NC(=O)c4ccc(O)c(CC=C(C)C)c4)c(=O)oc3c2C)OC1(C)C
[out] True

----------
Provide the reported viability, T/C of each item.
System: 994946-033-R-J1-PDC complex spheroid viability
Test: Anticancer human tumor 994946-033-R-J1-PDC cell line growth inhibition [POLQ];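 also: spheroids exposed to drugs for 7 days; 100% = DMSO vehicle treated spheroids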
Settings: second compound 1 µM; first compound 0.0316 µM; active compounds read low
State just the number; it will be interpreted in %.

[in] Please give the measured viability, T/C for this molecule: O=c1[nH]cc(F)c(=O)[nH]1 + Cc1cccc(N(C)C(=O)C2C(O)CCN2c2nc(C)cc(C(F)(F)F)c2C#N)c1
[out] 95

[in] Which viability, T/C value is on record for COc1ccc([C@@H](O)c2cc(-c3ncnc4cc(N5CCOCC5)ccc34)c(F)cc2Cl)nn1 + Nc1ccc(C#CCN(C(=O)Cc2ncc(C(F)(F)F)cc2C(F)(F)F)c2ccc(F)cc2)nn1 ?
[out] 114

[in] # get_value(readout='viability, T/C', item= CC1COCCN1c1cc(C2(O)CC3CCC(C2)O3)c2cnn(-c3ccn[nH]3)c2n1 (centres undefined) + Cc1cccc(N(C)C(=O)C2C(O)CCN2c2nc(C)cc(C(F)(F)F)c2C#N)c1 )
[out] 42

[in] // query viability, T/C value for entry C#Cc1c(F)ccc2cc(O)cc(-c3ncc4c(N5CC6CCC(C5)N6)nc(OCC56CCCN5CC(F)C6)nc4c3F)c12 (centres undefined) + COC1C(OC(N)=O)C(O)C(Oc2ccc3c(O)c(NC(=O)c4ccc(O)c(CC=C(C)C)c4)c(=O)oc3c2C)OC1(C)C
[out] 77.9

[in] Recorded viability, T/C for CCc1cc2c(N3CCc4c(cc(Cn5ccnc5)cc4-c4cn(C)nc4C(F)(F)F)C3=O)ccnc2c(OC)n1 + Nc1ccc(C#CCN(C(=O)Cc2ncc(C(F)(F)F)cc2C(F)(F)F)c2ccc(F)cc2)nn1 , please?
[out] 98.9

[in] Find the recorded viability, T/C belonging to C=CC(=O)N1CCN(c2nc(=O)n(-c3c(C)ccnc3C(C)C)c3nc(-c4c(O)cccc4F)c(F)cc23)C(C)C1 (centres undefined) + Cc1cccc(N(C)C(=O)C2C(O)CCN2c2nc(C)cc(C(F)(F)F)c2C#N)c1 and report it.
[out] 113

[in] Record request: viability, T/C value, item CC1COCCN1c1cc(C2(O)CC3CCC(C2)O3)c2cnn(-c3ccn[nH]3)c2n1 (centres undefined) + Nc1ccc(C#CCN(C(=O)Cc2ncc(C(F)(F)F)cc2C(F)(F)F)c2ccc(F)cc2)nn1
[out] 74.5

[in] Name the recorded viability, T/C for CCc1cc2c(N3CCc4c(cc(Cn5ccnc5)cc4-c4cn(C)nc4C(F)(F)F)C3=O)ccnc2c(OC)n1 + COC1C(OC(N)=O)C(O)C(Oc2ccc3c(O)c(NC(=O)c4ccc(O)c(CC=C(C)C)c4)c(=O)oc3c2C)OC1(C)C .
[out] 91.6

[in] Which viability, T/C is listed for CC1COCCN1c1cc(-c2ccnn2C)c2ccnc(-c3ccn[nH]3)c2n1 (centres undefined) + Nc1ccc(C#CCN(C(=O)Cc2ncc(C(F)(F)F)cc2C(F)(F)F)c2ccc(F)cc2)nn1 ?
[out] 75.5

----------
Tested on: 994946-033-R-J1-PDC complex spheroid viability
Assay: Anticancer human tumor 994946-033-R-J1-PDC cell line growth inhibition [POLQ];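 also: spheroids exposed to drugs for 7 days; 100% = DMSO vehicle treated spheroids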
Conditions: second compound 0.316 µM; first compound 0.1 µM; active compounds read low
value-kind: viability, T/C (%)
Express it in %; write the number only.

[in] So what's the measured viability, T/C for this one? CCc1cc2c(N3CCc4c(cc(Cn5ccnc5)cc4-c4cn(C)nc4C(F)(F)F)C3=O)cc(C)nc2c(OC)n1 + Cc1cccc(N(C)C(=O)C2C(O)CCN2c2nc(C)cc(C(F)(F)F)c2C#N)c1
[out] 78.5

[in] // viability, T/C lookup, key: C#Cc1c(F)ccc2cc(O)cc(-c3ncc4c(N5CC6CCC(C5)N6)nc(OCC56CCCN5CC(F)C6)nc4c3F)c12 (stereo not given) + Cc1cccc(N(C)C(=O)C2C(O)CCN2c2nc(C)cc(C(F)(F)F)c2C#N)c1
[out] 102

[in] Which viability, T/C is reported for this compound? COc1cc2cc(C(=O)CCC(=O)O)sc2cc1OC + Cc1cccc(N(C)C(=O)C2C(O)CCN2c2nc(C)cc(C(F)(F)F)c2C#N)c1
[out] 96.1

[in] I am curious: what viability, T/C value has been reported for CCc1c2c(nc3ccc(O)cc13)-c1cc3c(c(=O)n1C2)COC(=O)[C@]3(O)CC + Nc1ccc(C#CCN(C(=O)Cc2ncc(C(F)(F)F)cc2C(F)(F)F)c2ccc(F)cc2)nn1 ?
[out] 7.25

[in] # get_value(readout='viability, T/C', item= CC(C)n1c(=O)n(C)c2cnc3cc(F)c(-c4ccc(OCCCN5CCCCC5)nc4)cc3c21 + Nc1ccc(C#CCN(C(=O)Cc2ncc(C(F)(F)F)cc2C(F)(F)F)c2ccc(F)cc2)nn1 )
[out] 80.9
